target: HLA-B*15:01; experiment: IEDB peptide-MHC binding, purified MHC/competitive/fluorescence; filed as Kd, often an IC50 or EC50 that approximates it; bounds were set here for any values at or beyond the usual limits of such assays; details: source organism: Influenza A virus (A/Gf/HK/SSP607/2003(H9N2))

[
  {
    "QUERY SEQUENCE": "AMITYITRK",
    "Kd": "≥ 20 µM"
  }
]

* * *

target: HLA-B*27:05; assay: IEDB peptide-MHC binding, purified MHC/direct/fluorescence; filed as Kd, often an IC50 or EC50 that approximates it; bounds were set here for any values at or beyond the usual limits of such assays; settings: source organism: Coxiella burnetii
pKd: −log10 of the molar value.

[
  {
    "QUERY SEQUENCE": "KGPDKLQVY",
    "pKd": "≤ 4.70"
  }
]

* * *

target: HLA-B*48:01; test: IEDB peptide-MHC binding, purified MHC/direct/fluorescence; filed as Kd, often an IC50 or EC50 that approximates it; bounds were set here for any values at or beyond the usual limits of such assays; settings: source organism: Mycobacterium tuberculosis

[
  {
    "QUERY SEQUENCE": "LTFLDCLYY",
    "Kd": "≥ 20 µM"
  }
]

* * *

Below: a set of entries, each annotated with reported Kd.
biological target: HLA-A*02:03; assay: IEDB peptide-MHC binding, purified MHC/competitive/radioactivity; filed as Kd, often an IC50 or EC50 that approximates it; bounds were set here for any values at or beyond the usual limits of such assays; settings: source organism: Mammarenavirus lassaense

[
  {
    "QUERY SEQUENCE": "LLWDYMCIS",
    "Kd": "0.596 µM"
  },
  {
    "QUERY SEQUENCE": "LNCLSLLLSV",
    "Kd": "0.23 µM"
  }
]

* * *

target: HLA-A*31:01; test: IEDB peptide-MHC binding, purified MHC/competitive/fluorescence; filed as Kd, often an IC50 or EC50 that approximates it; bounds were set here for any values at or beyond the usual limits of such assays; settings: source organism: Zaire ebolavirus

[
  {
    "QUERY SEQUENCE": "GIVSSMHYK",
    "ASSAY SYSTEM": "HLA-A*31:01",
    "Kd": "≥ 20 µM"
  }
]

* * *

molecular target: HLA-A*30:01; assay: IEDB peptide-MHC binding, purified MHC/competitive/radioactivity; filed as Kd, often an IC50 or EC50 that approximates it; bounds were set here for any values at or beyond the usual limits of such assays; conditions: source organism: Mammarenavirus brazilense
pKd: −log10 of the molar value.
ASSAY READOUT: pKd

[
  {
    "QUERY SEQUENCE": "KTLHSSVQSY",
    "EXPERIMENTAL VALUE": 6.24
  }
]

* * *

target: HLA-B*40:02; test: IEDB peptide-MHC binding, purified MHC/competitive/radioactivity; filed as Kd, often an IC50 or EC50 that approximates it; bounds were set here for any values at or beyond the usual limits of such assays; settings: source organism: Mammarenavirus juninense

[
  {
    "QUERY SEQUENCE": "LDLVLLNLL",
    "Kd [nM]": 48.5
  }
]

* * *

biological target: HLA-B*40:01; experiment: IEDB peptide-MHC binding, purified MHC/competitive/radioactivity; filed as Kd, often an IC50 or EC50 that approximates it; bounds were set here for any values at or beyond the usual limits of such assays; conditions: source organism: Dengue virus 4 Dominica/814669/1981
pKd: −log10 of the molar value.
ASSAY READOUT: pKd

[
  {
    "QUERY SEQUENCE": "AENTNSVTNI",
    "ASSAY SYSTEM": "HLA-B*40:01",
    "EXPERIMENTAL VALUE": 6.34
  }
]

Hello, the source for this data is the Immune Epitope Database (IEDB), in case you need it.
